# Tested on: corn
# measurement_notes: Test C preemergence
# Format: in vivo, Zea mays
# recorded_conditions: 500 g ai/ha, preemergence; 0 to 100 scale (0 no effect, 100 complete control)
readout_type: Corn plant response rating
Enter the number alone.

{"compound": "CCOC[C@H]1CN(C(=O)c2cc(-n3cnc(C(C)(C)C)n3)cc3c2OCCO3)c2cccc(Cl)c2O1", "tested_on": "corn", "quantitative_readout": 10}
{"compound": "CC(C)c1ncn(-c2cc(C(=O)N3CC(C(F)(F)F)Oc4c(Cl)cccc43)ccn2)n1 (single isomer, unassigned) [Compound 331]", "tested_on": "corn", "quantitative_readout": 0}
{"compound": "CCOC(=O)c1ncn(-c2ccc(C)c(C(=O)N3C[C@H](C)Oc4c(Cl)cccc43)c2)n1", "tested_on": "corn", "quantitative_readout": 20}

Cc1cccc2c1O[C@@H](C)CN2C(=O)c1cc(-n2cnc(C(C)C)n2)cc2c1CCO2 yielded Corn plant response rating of 70

CC(=O)c1ncn(-c2ccc(C)c(C(=O)N3C[C@H](C)Oc4c(Cl)cccc43)c2)n1 yielded Corn plant response rating of 70

Cc1ncn(-c2ccc(F)c(C(=S)N3C[C@H](C)Oc4c(C)cccc43)c2)n1 yielded Corn plant response rating of 20
